Form field: Kd (one value per entry).
Target: T1, hu-CD74 antigen (R&D SYSTEMS catalog #3590-CD-050) (human, UniProt P04233-2 73-232, limits assumed)
T1 construct: Bought antigen; also called rhCD74; human CD74
T1 sequence (looked up): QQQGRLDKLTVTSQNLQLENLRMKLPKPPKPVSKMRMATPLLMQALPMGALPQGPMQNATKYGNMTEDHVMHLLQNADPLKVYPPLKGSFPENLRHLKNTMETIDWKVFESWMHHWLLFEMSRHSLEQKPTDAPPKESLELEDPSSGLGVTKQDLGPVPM
Test: SPR (Biacore T200), captured on anti-human Fc, rhCD74 analyte
Kindly answer with a numeric value in nM, unit omitted.

Please review the following examples before continuing.
binder: 1193-H04b (scFv, Called scFv clone) scFv: EVQLLESGGGLVQPGGSLRLSCAASGFTFTSSWMSWVRQAPGKGLEWVGIINGYNGITYYADSVKGRFTISRDNSKNTLYLQMNSLRAEDTAVYYCAKPSAPGARRFDYWGQGTLVTVSSGGGGSGGGGSGGGGSEIVLTQSPGTLSLSPGEATLSCRASQSVSSSYLAWYQQRPGQAPRLLIYGASSRATGIPDRFSGSGSGTDFTLTISRLEPEDFAVYYCQQHYTTPPTFGQGTKVEIK
readout.units: nM
quantitative.readout: 63.8
//
binder: 1193-E06b (scFv, Called scFv clone) scFv: EVQLLESGGGLVQPGGSLRLSCAASGFTFNNTDMSWVRQAPGKGLEWVGIINGSGGATNYADSVKGRFTISRDNSKNTLYLQMNSLRAEDTAVYYCAKFENEWEVSMDYWGQGTLVTVSSGGGGSGGGGSGGGGSEIVLTQSPGTLSLSPGERATLSCRASQSVSSSYLAWYQQKPGQAPRLLIYGASSRATGIPDRFSGSGSGTDFTLTISRLEPEDFAVYYCQQHYTTPPTFGQGTKVEIK
readout.units: nM
quantitative.readout: 0.668
//
binder: 1193-C08 (scFv, Called scFv clone) scFv: EVQLLESGGGLVQPGGSLRLSCAASGFTFNNNWMSWVRQAPGKGLEWVGIINGDDGYTYYADRVKGRFTIIRDNSKNTLYLQMNSLRAEDTAVYYCAKVALGRPRRFDYWGQGTLVTVSSGGGGSGGGGSGGGGSEIVLTQSPGTLSLTPGERATLSCRASQSVSSNYLAWYQQKPGQAPRLLIYGASSRATGIPDRFSGSGSGTDFTLTISRLEPEDFAMYYCQQHYTTPPTFGQGTKVEIK
readout.units: nM
quantitative.readout: 78.2

[ask] Would you mind telling me what Kd value was observed for 1193-B06 (scFv, Called scFv clone; VH3-23 / Vk3-A27; Biacore capture was on anti-human Fc, so an Fc may have been attached) scFv: EVQLLESGGGLVQPGGSLRLSCAASGFTFTGNWMSWVRQAPGKGLEWVGIIYGTSGATYYADSVKGRFTISRDNSKNTLYLQMNSLRAEDTAVYYCAKPSMSGSRGFDYWGQGTLVTVSSGGGGSGGGGSGGGGSEIVLTQSPGTLSLSPGERATLSCRAGQSVSSSYLAWYQQKPGQAPRLLIYGASSRATGIPDRFSGSGSGTDFTLTISRLEPEDFAVYYCQQHYTTPPTFGQGTKVEIK ?
[reply] 29
